Provenance of the data: PubChem BioAssay AID1626

In this section, each of the compounds is paired with its reported inhibition.
- Experiment Summary: M. tuberculosis H37Rv growth inhibitors, H37Rv strain (AID 1626);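 further: bacteria incubated seven days before Alamar blue readout; 0% = bacteria only wells and 100% = bacteria with antibiotic wells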
- Test Settings: active compounds read high, concentration not given here
About 2,000 (0.91%) of roughly 220,000 compounds were called active. About 2% were inconclusive and are not listed. A selection follows. Entries with a potency or affinity are not part of this list.
Quick reminder: number only, in %, skip the unit.

Compound | Unit Abbreviation | inhibition
c1ccc(C(c2ccccc2)c2noc(CN3CCN(CC4CC4)CC3)n2)cc1 | % | 0.03
CCCN(CCC)C(=O)CSc1nc2c(sc(=S)n2-c2ccc(OCC)cc2)c(=O)[nH]1 | % | 6.22
COc1ccc(NC(=O)c2cc3ccc4c5ccccc5[nH]c4c3cc2O)cc1 | % | 2.53

Query string: // query inhibition value for entry `CCOC(=O)CSc1nc(-c2ccccn2)ncc1OC`
Result string: 10.3

Query string: // query inhibition value for entry O=C(CCN1C(=O)C2CCCCC2C1=O)Nc1nc(-c2ccccc2)cs1 (stereo not given)
Result string: 6.05

Query string: I would be grateful if you could share the reported inhibition for `CCOC(=O)CN(Cc1sccc1C)C(=O)Nc1ccc(OCC)cc1` .
Result string: 3.69

Query string: // returns reported inhibition for input O=C(CCN1C(=O)C2CCCCC2C1=O)Nc1ccc(F)c(F)c1F (stereo not given)
Result string: -4.84

Query string: Report inhibition for `O=C(/C=C1\C(=O)Nc2ccccc21)/C=C1\C(=O)Nc2ccccc21` please.
Result string: 9.02

Query string: Param item = `CC(=O)Nc1ccc2[nH]c3ccccc3c2c1` ; retrieve measured inhibition.
Result string: 10.6

Query string: # get_value(readout='inhibition', item= `CCCn1nnc(NC(=O)c2cccnc2Cl)n1` )
Result string: 7.01
